Numbers sourced from a protein production outcome set (Wang et al. 2014).

testDescription: label from the status in PepcDB records
readoutLabel: protein production

1) MTDTNVLANSATDNQETTHFGFETVRKDEKVHKVAQVFHSVAAKYDIMNDLMSGGIHRLWKRFTIDCSGARPGQRILDLGGGTGDLTAKFSRIVGEKGHVILADINNSMLNVGRDKLRDSGVVGNVHYVQANAEELPFPDNYFDCITISFCLRNVTDKDKALRSMFRVLKPGGRLLVLEFSKPILEPLSKLYDTYSFHILPKMGQLIANDADSYRYLAESIRMHPDQETLKGMMEEAGFEQTTYYNLTGGIVALHRGYKFLEHHHHHH not failed
2) MTTFNYTNILTQAVDELSESQSYKGLFHQHKDGDPLPSAKSLYKIVELARAIIFPGYFGNSTVNSHTINYHIGVNVETLFGLLTEQILAGLCFGQENSKNATDDNEPCRETASLLAARFISKLPELRRILATDVEAAYYGDPAATCFGEIISCYPAIRAISNYRIAHELLILGVPLIPRFITEMAHSETGIDIHPGAQIGHHFTIDHGTGVVIGATSIIGNNVKLYQGVTLGAKSFPLDNNGNPIKGIPRHPILEDDVIVYSNATILGRVTIGKGATVGGNIWVTENVPAGSRIVQRKNKDELEHHHHHH not failed

====

testDescription: label from the status in PepcDB records
readoutLabel: protein production

1) MSLEEVIEQLREANEPVPVPLELPDEDQLVEIEEQLFINIPFVFKEFLLTVSDVVYGSLEPVTVTDPQSHTYLPEVCATAWDLGVPRELIPICQDGEDYYCVEEDGTVLLWSAEEELVTEESWESVWHWARDVWLESEGHHHHHH not failed
2) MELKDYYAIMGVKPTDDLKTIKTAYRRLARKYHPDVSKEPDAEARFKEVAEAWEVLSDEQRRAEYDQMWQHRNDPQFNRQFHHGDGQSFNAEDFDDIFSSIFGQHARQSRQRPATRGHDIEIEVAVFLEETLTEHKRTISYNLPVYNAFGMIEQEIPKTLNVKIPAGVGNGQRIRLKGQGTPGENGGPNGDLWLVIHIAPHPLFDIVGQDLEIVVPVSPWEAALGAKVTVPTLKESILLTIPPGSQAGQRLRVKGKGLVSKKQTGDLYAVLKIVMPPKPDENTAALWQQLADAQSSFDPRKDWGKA failed
3) MQDSRPHPHDWNVSTDEAKRIQRRLASEVTERALPDGGETVAGIDVSVRDDTAQAAVSVLRLPELDVVDEATHRCEVPFPYVPGLLSFREMPAVLPALERLHSTPDVFVTDSHGAAHPRRFGLACHLGVLLDAPAIGVAKSILVGAPQGELGPEKGSRVPLVDDGETVGTVLRTRTDVNPVYVSVGHRCTLDGAADLMLDCSPRYKIPEPTRQAHKLSRAEG failed
4) MRLPGSGYSYTVIQSKNNYSQKSSFGISFVILSRGTKIFREDLFEFLSNFDFIREIISIEKQSNRSSLQFISESYGKLKFILLSDDLNSGEKVNLAMKESSCDFVFVLQSDMYLLNPFWIPNIFDEIVKKNVLLVGGEFFDKEEEMIPSIFLPSIDKKQKFKVILVNSEKDYEKTLITMDYCGLYSKEKFLQLGGFDARIQNEYFQRIDFGLRAIYFGEHVYIYRKLRIQYTALNSPENLTKSKSFLIFLLKNYVPIFVGNGVVFSFLRFCKICLKYKINPFLFQKEFKEIKGEITKNSLRFKGDLKSAIELWENDIID failed
5) MAKAVASQEVANMLNDWYILMKKRDISGSIEMKDDIDKAIEKMEEDHDVLLYYQMLDFRLRLLLEDISQSSTEKLEAISFKDKDPKSTDDKLNYYFYLFKGIYEDYKQNHTEALNFFRIAEKRLSVIQNEIEKAEFHYKIGVLYYNLKATWLSIHHINIASGIFQGYDGYAKRVINCKMLIGLNYIDQFKFAESEVLLKEAIEKTEKIGDQYLLPYTYYNMGFLKSKEDKHEEALKYYNKAFAIKDFETKAKYAYLLCVYENTRSLFKTNDPDQAFKWIDTGFKKAQEVNSEIFELKFKTLYTLHSDCQNKLEVIKDFIHQLEDKKAWVDLEELLMDVANYYRENKLYEEAIYFYIKTDKASKLAGRGGE failed
6) NLDPQRVEQEMILLAQRIDVAEELDRLQMHVKETTNILKKGGAVGRKLDFMMQELNRESNTLASKSINADITASAVELKVLIEQMREQIQNLE failed
7) MLLHLSTWQEVEAYLQQSKGIIFPIGSTEQHGPTGLIGTDAICAEAIAAGVGDATGAIVGPTINVGMALHHTAFPGTISLRPSTLIQVVRDYVTCLAKAGFSKFYFINGHGGNIATLKAAFSETYAHLEDLQIANAQQVQCQVANWFMCGSVYKLAKELYGDQEGSHATPSEVALTQYVYPEAIKQAPLSPEVASGHRIYSAADFRVRYPDGRMGSNPGLATPEHGKQFYDLAVKELSNGYLEFVNAD not failed
8) MDLETLRARREAVLSLCARHGAVRVRVFGSVARGEAREDSDLDLLVAFEEGRTLLDHARLKLALEGLLGVRVDIVSERGLAPRLREQVLREAIPL not failed
9) MRASSSQGTPMNTALHDNREVVTVCLQHKVLDGSPGTPAAQPPRWKQALLTYLVICPMTMVIPQLLAPLFARFPQLGGVITGNLIVNLFVILPVVFYIMPWVTRRCANWLRG failed
10) MTNLKLFNFEGSKVRTVILDEEPFFVGIDVASILGYSNPQKAMRDHCKKPAESLVNDSLGRPRRTLVLSESDVYRLVLRSDLPSAEKFENWLMDEVLPSIRKHGAYMTDDTIEKAITDPDFLIRLATNLKEEKSKRLEAEQKIEAQRPKVLFADAVSDTEGTILIRDLAKLIQQNGVDIGEKRLFEWLRQNGYLISRRGTDYNRPTQKSMELGLFKIKETAIMRSSGAHTAITAKVTGKGQLYFVNKFLEQSLVAN failed
11) MSDFVNGFWSYFIGIIAIGGIVWCVWLLYSQRRWLSTRPAGGVVEDTGHVWDGDLTELNNPVPRWWTWMYLLTCVFALGYLVLFPGVGSYQGTLGYTSVGEVKQKQAELAERVKPVYERFGGMTPEQLVADAPAREIGQRLFLNTCAQCHGSDAKGSTSFPNLTDGDWLYGGTPEIIAETIAKGRHGVMPPWKGVIDPRMAGDIAHYVRSLSGLAVDPVRVFRGKREFANYCVACHGVDAKGNQALGAPNLTDDVWLYGSSEASIVRTILDGRDNRMPAHEEVLTPEQIKLLSAWVWGLSNQAPAKAAEAAR failed
12) MAGRQPGGAAMKALLHGIAEGNGRTLRNLLGLLIFIGGGYLLGRHALLLAELNLPAPIVLALKGGLLCAFGTALGAMPVLVVKTMPARLSDALLGFGAGVMLSATAFSLIMPALSAAGDLGYSKFGAGFLVSFGLAVGVMGLFILGRLMPDVHPGCEGAPLSGGIPPRILLFVTAIVLHNIPEGMAVGVSAGAGLDEANGLALGIALQDVPEGLVVALVLAGVGMSRFKAMLVGAASGLVEPLFAVLCAWLVGLSALLLPWGLAAAAGAMLFVVTHEIIPESHRQGHAAEATLGLVFGFCLMMVLDTALG failed

====

testDescription: label from the status in PepcDB records
readoutLabel: protein production

1. MISLRTFLITFLVNIALLGIFWGNRMNFVDVVIFSFFSALFVSLATHILVTSRLRKLREAVARKSRFEDFLNDEITKLAEEVNSVVENSLIQEKETEKLKDIVTGFVHDVKSLVWNEVEDENLQKIIEEFYEFAKLEAGLERLRKEPVNLVELVNDVVEKFPGKVIFKYDDVVEVEADPMKLFRAFYNVIENAVKYSSGPVEVHVKKDRIIVKGPGPEIPYEVRANLFEKKKKSKGTGLGLYLAREFFEMHGFRIAYRREGNHNVFEIYTGYTGMSSVKSERDSR not failed
2. EQEDKVSGEKTLAVVSASSDDRPSTRGIINDNTYALGVFRTTANTYAPLYNVKHIYSGGEWGADDVIKVDYRNASFFAYYPYHTATGNYAGLAGGTTLTLQAQLFNAGEDICYGAGEASGGGPVSVYNPFVEFLNMKHAYARLRLTLTRGEKFDKTKKCNIQNITFKSNNANFYLTRSLDIASTAGATGGSAVAAGYVHNPNVNIATGKSVTYEYMFPPQPLDGSKLTILVTVDGVTRSCDISTLGSSLDSGKYYGVSLTFTDVGIILSSAVVTVNNFGGQGNTQVDTEL not failed
3. MKDTFRLENQTIYFGTERAISASPQTIWRYLTETDKLKQWFPELEIGELGVNGFWRFILPDFEETMPFTDYAEEKYLGVTWDTGIIYFDLKEQAPHQTLLVFSESLPENFTTPRHKDIAGWSIVLNRLKQVVETPDAAPEKIDFPQIENHYLEKLTNLEN not failed

====

testDescription: label from the status in PepcDB records
readoutLabel: protein production

1. MNKALKALGVLTTFVMLIVLIGGALVTKTGSGQGCGRQWPLCHGRFFPELNPASIIEWSHRFASGISIILVLSLAFWSWRKITPIFRETTFLAIMSIIFLFLQALLGALAVVFGSNALIMALHFGISLISFASVLILTLLIFEADKSVRTLVKPLQIGKKMQFHMIGILIYSYIVVYTGAYVRHTESSLACPNVPLCSPLNNGLPTQFHEWVQMGHRAAALLLFVWIIVAAVHAITSYKDQKQIFWGWISCLIFITLQALSGIMIVYSELALGFALAHSFFIACLFGVLCYFLLLIARFRYESRQS failed
2. MTFFTNYTNLALIAILLVSGGLLAWPALRRGRGGLSAAEATQLINRRNAVVIDLRAATDFAAGHLPSARQVAAGEIGAKIAQVAKNKSTPVLLVCQNGQQSQKAAREVQAAGYAEVHVLEGGVAAWQQAGMPVVKQGVAK failed
